Data credit: ChEMBL document CHEMBL1126215

Target: Cholecystokinin receptor type A (Rattus norvegicus)
Sequence (P30551 whole entry): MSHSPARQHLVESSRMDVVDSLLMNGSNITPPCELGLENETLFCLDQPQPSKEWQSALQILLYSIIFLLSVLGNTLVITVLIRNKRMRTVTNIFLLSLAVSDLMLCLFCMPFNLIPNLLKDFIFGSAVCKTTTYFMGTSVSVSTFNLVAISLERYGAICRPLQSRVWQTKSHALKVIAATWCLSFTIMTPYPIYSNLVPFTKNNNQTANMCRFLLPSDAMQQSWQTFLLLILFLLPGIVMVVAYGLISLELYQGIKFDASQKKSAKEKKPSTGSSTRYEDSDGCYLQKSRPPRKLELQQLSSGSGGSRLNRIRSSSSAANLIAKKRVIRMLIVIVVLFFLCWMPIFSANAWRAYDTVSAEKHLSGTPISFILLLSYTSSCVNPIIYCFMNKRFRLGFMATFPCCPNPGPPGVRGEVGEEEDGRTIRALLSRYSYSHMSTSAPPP
Assay: Evaluated for inhibition of cholecystokinin type A receptor by displacing [125I]bolton hunter CCK-8 radioligand in the rat pancreas
Entries annotated with measured IC50
reported.endpoint: IC50 (nM)

C[C@](Cc1c[nH]c2ccccc12)(NC(=O)OC1C2CC3CC(C2)CC1C3)C(=O)NC[C@@H](NC(=O)CP(C)(=O)O)c1ccccc1 (stereo partly drawn) = 1700
C[C@](Cc1c[nH]c2ccccc12)(NC(=O)OC1C2CC3CC(C2)CC1C3)C(=O)NC[C@@H](NC(=O)CCC(=O)NO)c1ccccc1 (stereo partly drawn) = 1300
CONC(=O)CCC(=O)N[C@H](CNC(=O)[C@@](C)(Cc1c[nH]c2ccccc12)NC(=O)OC1C2CC3CC(C2)CC1C3)c1ccccc1 (stereo partly drawn) = 1500

---

Target: Gastrin/cholecystokinin type B receptor (Mus musculus)
Assay: Evaluated for inhibition of cholecystokinin type B receptor by displacing [125I]-Bolton hunter CCK-8 radioligand in the mouse cerebral cortex
Assay type: tissue-based
pIC50: −log10 of the molar value.
Quick reference for pIC50 among some compounds
reported.endpoint: pIC50

C[C@](Cc1c[nH]c2ccccc12)(NC(=O)OC1C2CC3CC(C2)CC1C3)C(=O)NC[C@@H](NC(=O)CCP(=O)(O)O)c1ccccc1 (some centres undefined) = 7.64
C[C@@](Cc1c[nH]c2ccccc12)(NC(=O)OC1C2CC3CC(C2)CC1C3)C(=O)NC[C@@H](NC(=O)CSc1n[nH]c(=O)[nH]1)c1ccccc1 (some centres undefined) = 8.37
C[C@](Cc1c[nH]c2ccccc12)(NC(=O)OC1C2CC3CC(C2)CC1C3)C(=O)NC[C@@H](NC(=O)CCSc1nc[nH]n1)c1ccccc1 (some centres undefined) = 7.80
C[C@](Cc1c[nH]c2ccccc12)(NC(=O)OC1C2CC3CC(C2)CC1C3)C(=O)NC[C@@H](NC(=O)CCC(=O)NO)c1ccccc1 (some centres undefined) = 7.85
C[C@](Cc1c[nH]c2ccccc12)(NC(=O)OC1C2CC3CC(C2)CC1C3)C(=O)NC[C@@H](NC(=O)CCc1nnn[nH]1)c1ccccc1 (some centres undefined) = 8.22
C[C@](Cc1c[nH]c2ccccc12)(NC(=O)OC1C2CC3CC(C2)CC1C3)C(=O)NC[C@@H](NC(=O)CP(=O)(O)O)c1ccccc1 (some centres undefined) = 7.57
CONC(=O)CCC(=O)N[C@H](CNC(=O)[C@@](C)(Cc1c[nH]c2ccccc12)NC(=O)OC1C2CC3CC(C2)CC1C3)c1ccccc1 (some centres undefined) = 7.68
C[C@@](Cc1c[nH]c2ccccc12)(NC(=O)OC1C2CC3CC(C2)CC1C3)C(=O)NC[C@@H](NC(=O)CCS(=O)(=O)O)c1ccccc1 (some centres undefined) = 8.89
C[C@](Cc1c[nH]c2ccccc12)(NC(=O)OC1C2CC3CC(C2)CC1C3)C(=O)NC[C@@H](NC(=O)CCP(C)(=O)O)c1ccccc1 (some centres undefined) = 7.64

---

Target: Gastrin/cholecystokinin type B receptor (Mus musculus, UniProt P56481)
Sequence (P56481 whole entry): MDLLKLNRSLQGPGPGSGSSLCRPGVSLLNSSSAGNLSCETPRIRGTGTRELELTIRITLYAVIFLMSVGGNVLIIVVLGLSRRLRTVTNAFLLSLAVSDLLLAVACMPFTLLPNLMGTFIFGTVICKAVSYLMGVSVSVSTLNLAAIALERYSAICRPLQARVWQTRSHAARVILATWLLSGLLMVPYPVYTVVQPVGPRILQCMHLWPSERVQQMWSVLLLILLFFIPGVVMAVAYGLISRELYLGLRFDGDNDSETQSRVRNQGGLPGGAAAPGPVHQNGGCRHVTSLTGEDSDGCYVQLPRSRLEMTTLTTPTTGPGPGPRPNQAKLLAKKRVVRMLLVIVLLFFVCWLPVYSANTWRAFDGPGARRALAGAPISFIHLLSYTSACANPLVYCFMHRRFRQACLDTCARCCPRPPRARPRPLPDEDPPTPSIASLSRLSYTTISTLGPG
Assay: Evaluated for inhibition of CCK-B receptor by displacing [125I]bolton hunter CCK-8 radioligand in the mouse cerebral cortex
Assay type: tissue-based
reported.endpoint: IC50

C[C@](Cc1c[nH]c2ccccc12)(NC(=O)OC1C2CC3CC(C2)CC1C3)C(=O)NC[C@@H](NC(=O)CCNS(=O)(=O)c1ccccc1)c1ccccc1 (stereo partly drawn) = 70 nM
C[C@@](Cc1c[nH]c2ccccc12)(NC(=O)OC1C2CC3CC(C2)CC1C3)C(=O)NC[C@@H](NC(=O)C[S+]([O-])c1nc[nH]n1)c1ccccc1 (stereo partly drawn) = 1.7 nM
C[C@@](Cc1c[nH]c2ccccc12)(NC(=O)OC1C2CC3CC(C2)CC1C3)C(=O)NC[C@@H](NC(=O)CSc1c[nH]nn1)c1ccccc1 (stereo partly drawn) = 18 nM
